Cited source for all entries: patent US20260209319A1

# target: T1, mesothelin (soluble, recombinant) (UniProt Q13421 296-580, limits assumed)
# T1 construct: also called MSLN; soluble MSLN
# assay-explanation: Octet BLI, bsAb captured on AHC biosensors, mesothelin 0-200 nM, 1:1 model
observation-type: kon (M⁻¹ s⁻¹)
Give the quantity in M⁻¹ s⁻¹, number only.

Known results for binders:
{"columns": ["binder", "kon / M⁻¹ s⁻¹"],
 "data": [
  ["MSLN-31-[L]-scFv^CD3 bsAb (bispecific antibody, V domains shown, IgG-[L]-scFv format; also called MSLN-31 bsAb; not shown: IgG heavy constant region (N297G, K322A), light constant region and the huOKT3-scFv with its 3xG4S linker; copies: 2 + 2) VH: QVQLQESGPGLVKPSETLSLTCTVSGGSVSSFTDTWSWIRQPPGKGLEWIGYIYYSGSTNYNPSLKSRVTISVDTSKNQFSLKLSSVTAADTAVYYCARDFVLSGFDIWGQGTMVTVSS VL: DIQMTQSPSSLSASVGDRVTITCRASQSISSYLNWYQQKPGKAPKLLIYAASSLQSGVPSRFSGSGSGTDFTLTISSLQPEDFATYYCQQPYDASYTFGGGTKVEIK", 258000],
  ["MSLN-30-[L]-scFv^CD3 bsAb (bispecific antibody, V domains shown) VH: QVQLQESGPGLVKPSETLSLTCTVSGGSVSSRDDLWSWIRQPPGKGLEWIGYIYYSGSTNYNPSLKSRVTISVDTSKNQFSLKLSSVTAADTAVYYCARDFVLSGFDIWGQGTMVTVSS VL: DIQMTQSPSSLSASVGDRVTITCRASQSISSYLNWYQQKPGKAPKLLIYAASSLQSGVPSRFSGSGSGTDFTLTISSLQPEDFATYYCQQPYDASYTFGGGTKVEIK", 221000],
  ["MSLN-39-[L]-scFv^CD3 bsAb (bispecific antibody, V domains shown) VH: QVQLQESGPGLVKPSETLSLTCTVSGGSVSSFTDTWSWIRQPPGKGLEWIGYIYYSGSTNYNPSLKSRVTISVDTSKNQFSLKLSSVTAADTAVYYCAREDALTGFDIWGQGTMVTVSS VL: DIQMTQSPSSLSASVGDRVTITCRASQSSRYYVNWYQQKPGKAPKLLIYAASSLQSGVPSRFSGSGSGTDFTLTISSLQPEDFATYYCQQSYDASYTFGGGTKVEIK", 379000]
]}

# next binder below
What the record says about HP4-44-[L]-scFv^CD3 bsAb (bispecific antibody, V domains shown) VH: QVQLQESGPGLVKPSETLSLTCTVSGGSVSSGSYYWSWIRQPPGKGLEWIGYIYYSGSTNYNPSLKSRVTISVDTSKNQFSLKLSSVTAADTAVYYCAREDVLSGFDIWGQGTMVTVSS VL: DIQMTQSPSSLSASVGDRVTITCRASQSISSYLNWYQQKPGKAPKLLIYAASSLQSGVPSRFSGSGSGTDFTLTISSLQPEDFATYYCQQSYDAFYTFGGGTKVEIK : kon is 278000
